Target: GlcNAc(b1-3)Gal(b1-4)GlcNAc
Assay: glycan array binding signal (z-score within array); higher = stronger binding
Details: glycan notation: IUPAC condensed, linker removed
Shown is part of a subset that was picked to be rich in the strongest signals.
property_name: glycan array binding signal (z-score)
The answer should be a number; do not append a unit.

## Input Which measured glycan array binding signal (z-score) value corresponds to MFG-E8 (Homo sapiens), Q08431 (protein) MPRPRLLAALCGALLCAPSLLVALDICSKNPCHNGGLCEEISQEVRGDVFPSYTCTCLKGYAGNHCETKCVEPLGLENGNIANSQIAASSVRVTFLGLQHWVPELARLNRAGMVNAWTPSSNDDNPWIQVNLLRRMWVTGVVTQGASRLASHEYLKAFKVAYSLNGHEFDFIHDVNKKHKEFVGNWNKNAVHVNLFETPVEAQYVRLYPTSCHTACTLRFELLGCELNGCANPLGLKNNSIPDKQITASSSYKTWGLHLFSWNPSYARLDKQGNFNAWVAGSYGNDQWLQVDLGSSKEVTGIITQGARNFGSVQFVASYKVAYSNDSANWTEYQDPRTGSSKIFPGNWDNHSHKKNLFETPILARYVRILPVAWHNRIALRLELLGC ?
## Output -0.62
